Test system: HOP-62
Assay: NCI screen antiproliferative activity, lung HOP-62
Assay type: cell-based, human
Conditions: concentration corresponding to 50% growth inhibition; read-out: cytotoxicity GI50 lung HOP-62
Let's look at some compounds and their measured GI50.
Numbers only; they are read as nM.

Look up GI50 for this compound: CN1C(=O)c2cc([N+](=O)[O-])ccc2C2C(=O)c3cc4c(cc3C21)OCO4 (racemic) [Compound 14]
158

// query: O=C1c2cc3c(cc2-c2c1c1ccc([N+](=O)[O-])cc1c(=O)n2CCCCl)OCO3 [Compound 15]
410

Consider next the compound Cl.NCCCn1c2c(c3ccc([N+](=O)[O-])cc3c1=O)C(=O)c1ccccc1-2 [Compound 24] in the same way.
275

###

Examples of compounds with documented GI50 follow.
Tested on: HCT-116
Test: NCI screen antiproliferative activity, colon HCT-116
Type: cell-based, human
Details: concentration corresponding to 50% growth inhibition; read-out: cytotoxicity GI50 colon HCT-116
Protocol: The indenoisoquinolines described herein were examined for antiproliferative activity against the human cancer cell lines in the National Cancer Institute screen, in which the activity of each compound was evaluated with approximately 55 different cancer cell lines of diverse tumor origins. […]
Report the value in nM with no unit label.

Consider the worked cases shown below.
O=C1c2ccccc2-c2c1c1ccc([N+](=O)[O-])cc1c(=O)n2CCCBr [Compound 20]: 3450
Cl.NCCCn1c2c(c3ccc([N+](=O)[O-])cc3c1=O)C(=O)c1ccccc1-2 [Compound 24]: 85
CN1C(=O)c2cc([N+](=O)[O-])ccc2C2C(=O)c3cc4c(cc3C21)OCO4 (racemic) [Compound 14]: 14

Given the compound O=C1c2cc3c(cc2-c2c1c1ccc([N+](=O)[O-])cc1c(=O)n2CCCCl)OCO3 [Compound 15] , what is its reported GI50?
2400

###

Test system: human cancer cell lines in the National Cancer Institute screen
Test: NCI screen mean graph midpoint over approximately 55 cancer cell lines
Type: cell-based
Details: average GI50 of all human cancer cell lines tested (approximately 55); test range 10^-8 to 10^-4 molar
propertyName: MGM (mean graph midpoint for growth inhibition) (µM)
# value in µM; strip the unit string

If you can, please state the reported MGM (mean graph midpoint for growth inhibition) value of [N-]=[N+]=NCCCn1c2c(c3ccc([N+](=O)[O-])cc3c1=O)C(=O)c1cc3c(cc1-2)OCO3 .
0.098

###

Tested on: SN12C
Experiment: NCI screen antiproliferative activity, renal SN12C
Assay type: cell-based, human
Conditions: concentration corresponding to 50% growth inhibition; read-out: cytotoxicity GI50 renal SN12C
Measured GI50 values are reported for all entries that follow.

O=C1c2cc3c(cc2-c2c1c1ccc([N+](=O)[O-])cc1c(=O)n2CCCCl)OCO3: 132 nM
CN1C(=O)c2cc([N+](=O)[O-])ccc2C2C(=O)c3cc4c(cc3C21)OCO4 (racemic): 33 nM
Cl.NCCCn1c2c(c3ccc([N+](=O)[O-])cc3c1=O)C(=O)c1ccccc1-2: 102 nM

Can you look up the measured GI50 of O=C1c2cc3c(cc2C2C1c1ccc([N+](=O)[O-])cc1C(=O)N2CCCBr)OCO3 (racemic) for me?
< 10 nM

// repeat for O=C1c2cc3c(cc2C2C1c1ccc([N+](=O)[O-])cc1C(=O)N2CCCCl)OCO3 (racemic) and report
< 10 nM

How about [N-]=[N+]=NCCCn1c2c(c3ccc([N+](=O)[O-])cc3c1=O)C(=O)c1cc3c(cc1-2)OCO3 ?
< 10 nM

Item: Cl.Nc1ccc2c3c(n(CCCCl)c(=O)c2c1)-c1cc2c(cc1C3=O)OCO2
> 100000 nM

Now the molecule O=C1c2ccccc2-c2c1c1ccc([N+](=O)[O-])cc1c(=O)n2CCCBr
> 100000 nM

###

System: MDA-MB-435
Assay: NCI screen antiproliferative activity, breast MDA-MB-435
Format: cell-based, human
Conditions: concentration corresponding to 50% growth inhibition; read-out: cytotoxicity GI50 breast MDA-MB-435
propertyName: GI50

O=C1c2cc3c(cc2C2C1c1ccc([N+](=O)[O-])cc1C(=O)N2CCCCl)OCO3 (racemic): < 10 nM
O=C1c2cc3c(cc2C2C1c1ccc([N+](=O)[O-])cc1C(=O)N2CCCBr)OCO3 (racemic): < 10 nM
Cl.Nc1ccc2c3c(n(CCCCl)c(=O)c2c1)-c1cc2c(cc1C3=O)OCO2: > 100000 nM

Name the reported GI50 value associated with the compound [N-]=[N+]=NCCCn1c2c(c3ccc([N+](=O)[O-])cc3c1=O)C(=O)c1cc3c(cc1-2)OCO3
< 10 nM

Also O=C1c2cc3c(cc2-c2c1c1ccc([N+](=O)[O-])cc1c(=O)n2CCCCl)OCO3 , if possible.
1820 nM

Note, next up: CN1C(=O)c2cc([N+](=O)[O-])ccc2C2C(=O)c3cc4c(cc3C21)OCO4 (racemic)
107 nM

# iterate: O=C1c2ccccc2-c2c1c1ccc([N+](=O)[O-])cc1c(=O)n2CCCBr
> 100000 nM

###

System: human cancer cell lines in the National Cancer Institute screen
Experiment: NCI screen mean graph midpoint over approximately 55 cancer cell lines
Type: cell-based
Conditions: average GI50 of all human cancer cell lines tested (approximately 55); test range 10^-8 to 10^-4 molar
Measured MGM (mean graph midpoint for growth inhibition) values are reported for all entries that follow.
Give the number; µM is assumed, so skip it.

Some solved entries appear below for comparison.
O=C1c2cc3c(cc2C2C1c1ccc([N+](=O)[O-])cc1C(=O)N2CCCBr)OCO3 (racemic) [Compound 12]: 0.016
O=C1c2cc3c(cc2-c2c1c1ccc([N+](=O)[O-])cc1c(=O)n2CCCCl)OCO3 [Compound 15]: 0.832

Find the measured MGM (mean graph midpoint for growth inhibition): item O=C1c2cc3c(cc2C2C1c1ccc([N+](=O)[O-])cc1C(=O)N2CCCCl)OCO3 (racemic) [Compound 13] , target or system human cancer cell lines in the National Cancer Institute screen.
0.018

And what about the compound Cl.Nc1ccc2c3c(n(CCCCl)c(=O)c2c1)-c1cc2c(cc1C3=O)OCO2 [Compound 18] ?
25

###

Tested on: OVCAR-3
Assay: NCI screen antiproliferative activity, ovarian OVCAR-3
Type: cell-based, human
Settings: concentration corresponding to 50% growth inhibition; read-out: cytotoxicity GI50 ovarian OVCAR-3
Here, each record is paired with measured GI50 data.

Examples with answers:
O=C1c2cc3c(cc2C2C1c1ccc([N+](=O)[O-])cc1C(=O)N2CCCBr)OCO3 (racemic): < 0.01 µM
[N-]=[N+]=NCCCn1c2c(c3ccc([N+](=O)[O-])cc3c1=O)C(=O)c1cc3c(cc1-2)OCO3: < 0.01 µM
O=C1c2cc3c(cc2C2C1c1ccc([N+](=O)[O-])cc1C(=O)N2CCCCl)OCO3 (racemic): < 0.01 µM
Cl.Nc1ccc2c3c(n(CCCCl)c(=O)c2c1)-c1cc2c(cc1C3=O)OCO2: > 100 µM
O=C1c2cc3c(cc2-c2c1c1ccc([N+](=O)[O-])cc1c(=O)n2CCCCl)OCO3: 9.12 µM
CN1C(=O)c2cc([N+](=O)[O-])ccc2C2C(=O)c3cc4c(cc3C21)OCO4 (racemic): 0.03 µM

As a next step, examine the molecule that follows.
GI50 for O=C1c2ccccc2-c2c1c1ccc([N+](=O)[O-])cc1c(=O)n2CCCBr ?
> 100 µM

###

Quick reference: GI50 of the listed items.
Tested on: UACC-62
Test: NCI screen antiproliferative activity, melanoma UACC-62
Type: cell-based, human
Details: concentration corresponding to 50% growth inhibition; read-out: cytotoxicity GI50 melanoma UACC-62

Recorded results for 3 compounds are shown here.
Cl.NCCCn1c2c(c3ccc([N+](=O)[O-])cc3c1=O)C(=O)c1ccccc1-2: 372 nM
[N-]=[N+]=NCCCn1c2c(c3ccc([N+](=O)[O-])cc3c1=O)C(=O)c1cc3c(cc1-2)OCO3: < 10 nM
O=C1c2ccccc2-c2c1c1ccc([N+](=O)[O-])cc1c(=O)n2CCCBr: > 100000 nM

Look up GI50 for this compound: O=C1c2cc3c(cc2C2C1c1ccc([N+](=O)[O-])cc1C(=O)N2CCCBr)OCO3 (racemic)
< 10 nM

One more compound: O=C1c2cc3c(cc2C2C1c1ccc([N+](=O)[O-])cc1C(=O)N2CCCCl)OCO3 (racemic)
< 10 nM

And Cl.Nc1ccc2c3c(n(CCCCl)c(=O)c2c1)-c1cc2c(cc1C3=O)OCO2 ?
> 100000 nM

Query O=C1c2cc3c(cc2-c2c1c1ccc([N+](=O)[O-])cc1c(=O)n2CCCCl)OCO3 next
229 nM

What about this compound? CN1C(=O)c2cc([N+](=O)[O-])ccc2C2C(=O)c3cc4c(cc3C21)OCO4 (racemic)
26 nM
